biological target: T1, hCD47-ECD/Fc protein (Sinobiological) (human, UniProt Q08722 19-139, biotinylated in the Octet assay, sites not stated); assay: competition ELISA vs biotin-hSIRPα-ECD/His on coated hCD47-ECD/Fc, experiment 1
T1 construct: extracellular domain; Bought protein; also called human CD47-Fc antigen; recombinant hCD47-ECD/Fc; not shown: Fc part of the bought fusion protein
T1 sequence (Q08722 19-139 limits assumed): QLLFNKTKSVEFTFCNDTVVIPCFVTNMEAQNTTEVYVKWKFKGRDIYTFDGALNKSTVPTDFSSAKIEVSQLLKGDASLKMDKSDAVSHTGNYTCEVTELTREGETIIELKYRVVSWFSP
pIC50: −log10 of the molar value.
Collected pIC50 values appear next to each entry.

- TY25029 (antibody, V domains shown) VH: EVQLVESGGGLVQPGGSLRLSCAASGYTFSNYWIHWVRQAPGKGLEWIGIIYPSSGSTKYAQKFQGRVTISRDNSKNTLYLQLNSLRAEDTAVYYCARDRAPGSSGYYDGFDYWGQGTLVTVSS VL: DIQLTQSPSSLSASVGDRVTITCRASQSVDFHGISFLHWYQQKPGKAPKLLIYDASSLESGVPSRFSGSGSGTDFTLTISSLQPEDFATYYCHQRSTTPLTFGQGTKVEIKR: < 7.00
- TY25036 (antibody, V domains shown) VH: QVQLVQSGAEVKKPGSSVKVSCKASGYTFTGYAIHWVRQAPGQGLEWIGWISPSSGSTKYAQKFQGRVTITADKSTSTAYMELSSLRSEDTAVYYCARYGYGPVFDYWGQGTLVTVSS VL: DIQLTQSPSSLSASVGDRVTITCSASSSVTYIYWYQQKPGKAPKLLIYDASNRATGIPSRFSGSGSGTDFTLTISSLQPEDFATYYCQQYTSSPRGFTFGQGTKVEIKR: < 7.00

Given item TY25041 (antibody, V domains shown) VH: QVQLVQSGAEVKKPGSSVKVSCKASGYSISSGHHWNWIRQAPGQGLEWIGAISYSGSTYYSPSLKSRVTITADKSTSTAYMELSSLRSEDTAVYYCARQGYYGGEGYAVDYWGQGTLVTVSS VL: DIQLTQSPSSLSASVGDRVTITCRASQSVDFYGISFLHWYQQKPGKAPKLLIYDASNRATGIPSRFSGSGSGTDFTLTISSLQPEDFATYYCVQATQTPFTFGQGTKVEIKR , the value recorded as its pIC50 is < 7.00
